# run-description: Cell viability assay (MTT), MDA-MB-231
# measurement-parameters: human, MDA-MB-231 breast cancer cells
Kindly apply the following: true if viability at 72 h, 12.5 µM is less than 80%, false in every other case.

                              smiles_string  class_label
0     O=NN(Cc1ccc(F)cc1F)c1ccc2c(c1)B(O)OC2        false
1     COc1ccc(CN(N=O)c2ccc3c(c2)B(O)OC3)cc1        false
2      OB1OCc2ccc(NCc3ccc(N4CCCCC4)cc3)cc21        false
3  COc1ccc(CN(C(=O)Nc2ccccc2)c2ccc3c(c2)B(O)OC3)cc1         true
4        OB1OCc2ccc(NCc3ccc(Cl)c(Cl)c3)cc21         true
5  CCCCN(CCCC)c1ccc(CNc2ccc3c(c2)B(O)OC3)cc1        false
6  COc1ccc(CN(C(=O)NC2CCCCC2)c2ccc3c(c2)B(O)OC3)cc1        false

###

The molecules listed here are annotated with their viability at 72 h, 50 µM.
# run-description: Cell viability assay (MTT), MDA-MB-231
# measurement-parameters: human, MDA-MB-231 breast cancer cells
measure-name: viability at 72 h, 50 µM (%)

>>> print(df.to_string())
                                   molecule              measure_name  measurement_units  result
0  COc1ccc(CN(C(=O)Nc2ccccc2)c2ccc3c(c2)B(O)OC3)cc1 [Compound 24]  viability at 72 h, 50 µM                  %    53.9
1  COc1ccc(CNc2ccc3c(c2)B(O)OC3)cc1 [Compound 10, 6-N-(p-methoxybenzyl)aminobenzoboroxole]  viability at 72 h, 50 µM                  %      90
2  OB1OCc2ccc(NCc3ccc(N4CCCCC4)cc3)cc21 [Compound 13]  viability at 72 h, 50 µM                  %    90.7
3  COc1ccc(CN(C(=O)NC2CCCCC2)c2ccc3c(c2)B(O)OC3)cc1 [Compound 26]  viability at 72 h, 50 µM                  %    60.8

###

# run-description: Cell viability assay (MTT), MDA-MB-231
# measurement-parameters: human, MDA-MB-231 breast cancer cells
// reported viability at 72 h, 12.5 µM for each item listed
measure-name: viability at 72 h, 12.5 µM (%)

In [3]: df
Out[3]:
                                   compound  measurement_units  result
0  O=C(NC1CCCCC1)N(Cc1ccccc1)c1ccc2c(c1)B(O)OC2 [Compound 25]                  %    80.9
1  N#Cc1ccc(CNc2ccc3c(c2)B(O)OC3)cc1 [Compound 8]                  %    77.7
2  OB1OCc2ccc(NCc3ccc(F)cc3F)cc21 [Compound 4]                  %    80.2
